- SYSTEM_NAME: Agg-1 (Homo sapiens, UniProt O75173)
- Sequence (O75173 213-837): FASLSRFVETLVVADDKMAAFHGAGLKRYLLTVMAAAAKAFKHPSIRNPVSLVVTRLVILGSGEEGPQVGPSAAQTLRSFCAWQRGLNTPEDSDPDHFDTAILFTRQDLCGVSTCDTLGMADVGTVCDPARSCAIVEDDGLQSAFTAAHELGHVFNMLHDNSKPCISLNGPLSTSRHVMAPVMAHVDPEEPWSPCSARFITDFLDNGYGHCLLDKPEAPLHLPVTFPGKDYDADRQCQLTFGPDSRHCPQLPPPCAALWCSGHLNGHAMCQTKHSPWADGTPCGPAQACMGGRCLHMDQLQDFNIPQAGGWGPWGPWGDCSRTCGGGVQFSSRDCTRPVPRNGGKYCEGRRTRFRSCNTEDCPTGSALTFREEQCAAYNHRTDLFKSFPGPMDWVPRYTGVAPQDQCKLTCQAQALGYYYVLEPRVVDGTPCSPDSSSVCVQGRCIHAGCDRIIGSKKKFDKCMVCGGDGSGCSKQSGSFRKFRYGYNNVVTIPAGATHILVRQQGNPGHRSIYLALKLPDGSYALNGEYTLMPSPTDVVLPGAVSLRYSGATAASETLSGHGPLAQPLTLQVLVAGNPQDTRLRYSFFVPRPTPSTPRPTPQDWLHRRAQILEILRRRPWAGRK
- ASSAY_EXPLANATION: Agg-1 FRET assay
- Format: biochemical
- SETTINGS: @ 22200 nM; read-out: Agg1 %
Would you mind labelling by inhibition at 22.2 µM? At or over 50% is criterion met, under is criterion not met.

{"MOLECULE": "O=C(COc1ccccc1)NC(c1cccc(OCc2ccccc2)c1)c1cc(Cl)c2cccnc2c1O (centres unmarked)", "LABEL_VALUE": "criterion not met"}
{"MOLECULE": "O=C(COc1ccccc1)NC(c1ccccc1F)c1cc(Cl)c2cccnc2c1O (centres unmarked)", "LABEL_VALUE": "criterion not met"}
{"MOLECULE": "O=C(COc1ccccc1)NC(c1ccccc1)c1cc(Br)c2cccnc2c1O (centres unmarked)", "LABEL_VALUE": "criterion met"}
{"MOLECULE": "Nc1cc(C(NC(=O)COc2ccccc2)c2ccccc2)c(O)c2ncccc12 (centres unmarked)", "LABEL_VALUE": "criterion met"}
{"MOLECULE": "O=C(COc1ccccc1)N[C@H](c1ccccc1Cl)c1cc(Cl)c2cccnc2c1O", "LABEL_VALUE": "criterion met"}
